System: HIV-1 strain IIIB
Experiment: Retrovirucidal effect on HIV-1 strain IIIB (Table 3)
Type: cell-based
Conditions: pIC50=-log IC50, IC50 in M
I'd appreciate it if you marked entries rule met when HIV1 pIC50 strain IIIB is lower than 8 and rule not met when it is not.

| chemical smiles | qualitative label |
| --- | --- |
| CCc1c(C)[nH]c(=O)c(N(C)CC)c1C(=O)c1cccc(Br)c1 | rule not met |
| CCc1[nH]c(=O)c(N)c(Cc2cc(C)cc(C)c2)c1C | rule met |
| CCc1c(C)[nH]c(=O)c(N2CCCCC2)c1Cc1cc(C)cc(C)c1 | rule met |
| CCc1c(C)[nH]c(=O)c(N(C)C)c1Cc1ccc2ccccc2c1 | rule met |
| CCc1c(C)[nH]c(=O)c(N(C)C)c1CNc1ccc(C#N)cc1 | rule met |

Query compound follows.
Please indicate whether the reported HIV1 pIC50 strain IIIB of CCc1c(C)[nH]c(=O)c(N(C)C)c1Cc1cccc(Cl)c1 is strictly below 8.
rule not met

---

Catalogue of HIV1 pIC50 strain 103N readings, one per entry.
System: HIV-1 strain 103 N
Assay: Retrovirucidal effect on HIV-1 strain 103 N (Table 3)
Format: cell-based
Conditions: HIV-1 strain 103N (RT Lys-103 to Asn mutant); pIC50=-log IC50, IC50 in M

Please review the following examples before continuing.
| compound | HIV1 pIC50 strain 103N |
| --- | --- |
| CCc1c(C)[nH]c(=O)c(N(C)C)c1Cc1c(C)cc(C)cc1C [Compound 59] | <5 |
| CCc1c(C)[nH]c(=O)c(N)c1Cc1c(C)cc(C)cc1C [Compound 58] | <5 |
| CCc1c(C)[nH]c(=O)c(N(C)C(C)C)c1Cc1cc(C)cc(C)c1 [Compound 79] | 5.47 |
| CCc1c(C)[nH]c(=O)c(N(C)C)c1C(=O)c1ccc(C)o1 [Compound 158] | 6.625 |

HIV1 pIC50 strain 103N lookup needed for CCCNc1c(Cc2cc(C)cc(C)c2)c(CC)c(C)[nH]c1=O [Compound 82] , thanks.
5.813

May I ask what HIV1 pIC50 strain 103N has been recorded for CCCc1[nH]c(=O)c(N(C)C)c(Cc2cc(C)cc(C)c2)c1C [Compound 63] ?
6.334

I have this compound here, CCc1c(C)[nH]c(=O)c(NCC(C)C)c1Cc1cc(C)cc(C)c1 [Compound 72] , and I need its recorded HIV1 pIC50 strain 103N.
<4

Any idea what its HIV1 pIC50 strain 103N is? The compound is CCOC(=O)Cn1c(C)c(CC)c(Cc2cc(C)cc(C)c2)c(N(C)C)c1=O [Compound 23]
<4

Returns the measured HIV1 pIC50 strain 103N for the input compound. Input: CCc1c(C)[nH]c(=O)c(N(C)C)c1Cc1ccc(C)cc1 [Compound 18]
4.895

Need HIV1 pIC50 strain 103N of CCc1c(C)[nH]c(=O)c(N(C)C)c1Cc1cc(C)cc(C)c1 [Compound 3] , thanks.
7.438

Reported HIV1 pIC50 strain 103N for CCc1c(C)[nH]c(=O)c(N(C)C)c1C(O)Cc1cccc(C)c1 (centres unmarked) [Compound 165] : what is it?
<4

---

Tested on: HIV-1 strain 103 N
Experiment: Retrovirucidal effect on HIV-1 strain 103 N (Table 3)
Format: cell-based
Conditions: HIV-1 strain 103N (RT Lys-103 to Asn mutant); pIC50=-log IC50, IC50 in M
Protocol: HIV-1 viral suspensions were obtained by coculture of MT4 cells and H9 cells chronically infected by HIV-ILai isolate. 200 μl of a cell supernatant containing viral particles (HIV-ILai: 100 TCID50) were incubated at room temperature with various concentrations of different inhibitors. […] Then, the viral concentrate was readjusted to the initial volume with RPMI plus 10% foetal calf serum (FCS). […] After 3 hours at 37° C., the level of the reaction was measured in a fluorescence microplate reader. […]
true (1) if HIV1 pIC50 strain 103N is below 6. false (0) if not; exact matches included in false (0).

Answered cases to consult:
| molecule | qualitative label |
| --- | --- |
| Cc1cc(C)cc(Cc2cc[nH]c(=O)c2N(C)C)c1 [Compound 16] | true (1) |
| CCc1c(C)[nH]c(=O)c(N(C)C)c1CN(C)Cc1ccccc1 [Compound 102] | true (1) |
| CCc1c(C)[nH]c(=O)c(N(C)CCOC)c1Cc1cccc(C)c1 [Compound 136] | false (0) |
| Cc1cccc(C(=O)c2c(C)c(C)[nH]c(=O)c2N(C)C)c1 [Compound 96] | false (0) |
| Cc1cc(C)cc(Cc2c3c([nH]c(=O)c2N)CCCC3)c1 [Compound 172] | true (1) |
| CCc1c(C)[nH]c(=O)c(N(C)C)c1Cc1cccc(C)c1C [Compound 20] | true (1) |

In plain terms, does CCc1c(C)[nH]c(=O)c(N(C)C)c1C(=O)c1cc(Br)cs1 [Compound 187] come in under 6 for HIV1 pIC50 strain 103N?
false (0)

hey, is HIV1 pIC50 strain 103N for CCc1c(C)[nH]c(=O)c(N(C)C(C)COC)c1Cc1cc(C)cc(C)c1 (centres unmarked) [Compound 129] lower than 6 or not?
false (0)

Does this molecule meet the criterion HIV1 pIC50 strain 103N < 6? CCc1c(C)[nH]c(=O)c(N(C)C)c1Cc1ccnc2ccccc12 [Compound 75]
true (1)

Strictly below 6 in HIV1 pIC50 strain 103N? CCc1c(C)[nH]c(=O)c(N(C)C)c1Cc1cc(Cl)cc(Cl)c1 [Compound 191]
false (0)

Check if HIV1 pIC50 strain 103N falls below 6 for CCc1c(C)[nH]c(=O)c(N(C)CC=C(C)C)c1Cc1cccc(C)c1 [Compound 164] .
false (0)

Please state whether HIV1 pIC50 strain 103N is below 6 for Cc1cc(C)cc(Cc2c(C)c(C)[nH]c(=O)c2N)c1 [Compound 32]
true (1)

Here's an entry: CCc1c(C)[nH]c(=O)c(N(C)Cc2ccccc2)c1Cc1cc(C)cc(C)c1 [Compound 67] . Is its HIV1 pIC50 strain 103N below 6?
true (1)

hey, is HIV1 pIC50 strain 103N for CCc1c(C)[nH]c(=O)c(N(C)C)c1CNc1cccc(C)c1 [Compound 163] lower than 6 or not?
true (1)

Hi there! Is HIV1 pIC50 strain 103N for Cc1cc(C)cc(Cc2cc(CCC(C)C)[nH]c(=O)c2N(C)C)c1 [Compound 77] below 6, do you know?
true (1)

Item CCc1c(C)[nH]c(=O)c(N(C)C)c1Cc1cccc(Cl)c1 [Compound 40] : HIV1 pIC50 strain 103N beneath 6, strictly?
false (0)

Would you kindly verify if HIV1 pIC50 strain 103N of Cc1cccc(Cc2c(C)c(C)[nH]c(=O)c2N)c1 [Compound 85] is strictly less than 6?
true (1)

Answer whether the molecule CCc1c(C)[nH]c(=O)c(N(C)C)c1Cc1cccc(OC)c1 [Compound 121] has HIV1 pIC50 strain 103N strictly less than 6
false (0)

---

Test system: HIV-1 strain IIIB
Assay: Retrovirucidal effect on HIV-1 strain IIIB (Table 3)
Type: cell-based
Details: pIC50=-log IC50, IC50 in M
Method: HIV-1 viral suspensions were obtained by coculture of MT4 cells and H9 cells chronically infected by HIV-ILai isolate. 200 μl of a cell supernatant containing viral particles (HIV-ILai: 100 TCID50) were incubated at room temperature with various concentrations of different inhibitors. […] Then, the viral concentrate was readjusted to the initial volume with RPMI plus 10% foetal calf serum (FCS). […] After 3 hours at 37° C., the level of the reaction was measured in a fluorescence microplate reader. […]
Below: a set of entries, each annotated with reported HIV1 pIC50 strain IIIB.

Past entries and their recorded results:
| chemical smiles | HIV1 pIC50 strain IIIB |
| --- | --- |
| Cc1cccc(Cc2c3c([nH]c(=O)c2N(C)C)CCCC3)c1 | 7.807 |
| Cc1cccc(C(=O)c2c3c([nH]c(=O)c2N(C)C)CCC3)c1 | 7.863 |

Let's switch to this molecule now.
Requested read-out: HIV1 pIC50 strain IIIB. Entry: CCc1c(C)[nH]c(=O)c(N(CC)CC)c1Cc1cc(C)cc(C)c1
8.022

---

System: HIV-1 strain IIIB
Assay: Retrovirucidal effect on HIV-1 strain IIIB (Table 3)
Type: cell-based
Conditions: pIC50=-log IC50, IC50 in M
The following compounds are listed with their measured HIV1 pIC50 strain IIIB values.
The answer should be a number; do not append a unit.

| compound | HIV1 pIC50 strain IIIB |
| --- | --- |
| CCc1c(C)[nH]c(=O)c(N(C)C)c1Nc1cccc(C)c1 | 8.432 |
| CCc1c(C)[nH]c(=O)c(N)c1C(O)c1cc(C)cc(C)c1 (stereo not drawn) | 5.795 |
| CCc1c(C)[nH]c(=O)c(N(C)C)c1Cc1cccc(Br)c1 | 8.444 |

# HIV1 pIC50 strain IIIB lookup, item CCc1c(C)[nH]c(=O)c(N(C)CC=C(C)C)c1Cc1cccc(C)c1
7.818

Any idea what HIV1 pIC50 strain IIIB was measured for CCc1c(C)[nH]c(=O)c(N(C)C)c1C(=O)c1cc(Br)cs1 ?
8.481

Record request: HIV1 pIC50 strain IIIB value, item CCc1c(C)[nH]c(=O)c(N(C)C)c1C(=O)c1cccc(CO)c1
7.848
